Kindly supply the reported viability values for the records listed here.
Assay: H69AR cell proliferation blockers – human, duplicate replicates, primary screen (AID 580);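 note: 100% = mean luminescence of untreated wells and 0% = no signal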
Settings: H69AR lung tumor cells viability, ATP luminescence, 72 h; at 10 µM; stronger effect = lower value
Numbers only, in %.

Reference set (3 entries):
So what does the record say about viability for CCOP(=S)(OCC)c1ccc(N(C)C)cc1 ?
78.3

Give its viability value. Item: COc1ccccc1CN1CCN(C(=O)Cc2ccccc2)CC1
99.6

Looking for the measured viability of CCCCCCn1c(O)c(C=NC2CCN(Cc3ccccc3)CC2)c(=O)[nH]c1=O , can you help?
74.8

Please state viability for every molecule in the list that follows.
1. CCN1CCN(Cc2cc(Br)cc(OC)c2O)CC1
2. Cc1ccc(-n2c(O)c(C=NCCN3CCOCC3)c(=O)[nH]c2=O)cc1
3. N#Cc1ccccc1Cn1cc(C(=O)c2ccco2)c2ccccc21

1: 94.2; 2: 102; 3: 82

Batch of 5 molecules: report viability for each.
1. COc1ccccc1N(CC(=O)NC1CCCCC1)C(=O)c1cnn(C(C)C)c1
2. Cc1ccc(C)c(NC(=O)CSc2nnc([C@@H](N)Cc3c[nH]c4ccccc34)o2)c1
3. CC(=O)N1CC(=O)Nc2ccc(Cl)cc2C1c1ccc(F)cc1 (stereo unspecified)
4. COc1ccc(S(=O)(=O)NC(CC(=O)N2CCC3(CC2)OCCO3)c2ccco2)cc1 (stereo unspecified)
5. Nc1ccc(C2(c3ccc(N)cc3)CN3CCC2CC3)cc1

106
106
97.5
93.9
106

The reported measurements were obtained from PubChem BioAssay.
